test.summary: Half life in ICR mouse at 30 mg/kg, po and measured upto 24 hrs by LC-MS analysis
Format: ADME, organism-based
setup.conditions: in vivo
property.measured: half-life (h)
Quick reminder: number only, in h, skip the unit.

Q: Provide one value: measured half-life of "Cc1cc(F)cc(C)c1C(=O)c1sc2cc(F)ccc2c1Oc1ccc(/C=C/C(=O)O)cc1"
Result: 3.13

----------
test.summary: AUCt in ICR mouse at 30 mg/kg, po and measured upto 24 hrs by LC-MS analysis
Format: ADME, organism-based
Parameters: time < 24 hrs, dose 30 mg/kg, route po
setup.conditions: in vivo
property.measured: AUC(0-t) at 24 h (ng·h/mL)
Quick reminder: number only, in ng·h/mL, skip the unit.

Q: Provide one value: measured AUC(0-t) at 24 h of "Cc1cc(F)cc(C)c1C(=O)c1sc2cc(F)ccc2c1Oc1ccc(/C=C/C(=O)O)cc1"
Result: 26600

----------
test.summary: AUC (0 to infinity) in ICR mouse at 3 mg/kg, iv and measured upto 24 hrs by LC-MS analysis
Assay type: ADME, organism-based
Design: time < 24 hrs, dose 3 mg/kg, route iv
setup.conditions: in vivo
property.measured: AUC(0-inf) (ng·h/mL)
Quick reminder: number only, in ng·h/mL, skip the unit.

Q: Provide one value: measured AUC(0-inf) of "Cc1cc(F)cc(C)c1C(=O)c1sc2cc(F)ccc2c1Oc1ccc(/C=C/C(=O)O)cc1"
Result: 4640

----------
test.summary: C0 in ICR mouse at 3 mg/kg, iv and measured upto 24 hrs by LC-MS analysis
Type: ADME, organism-based
setup.conditions: in vivo
property.measured: C0 at 24 h (ng/mL)
Quick reminder: number only, in ng/mL, skip the unit.

Q: Provide one value: measured C0 at 24 h of "Cc1cc(F)cc(C)c1C(=O)c1sc2cc(F)ccc2c1Oc1ccc(/C=C/C(=O)O)cc1"
Result: 4840

----------
test.summary: Oral bioavailability in ICR mouse at 30 mg/kg and measured upto 24 hrs by LC-MS analysis
Assay type: ADME, organism-based
setup.conditions: in vivo
property.measured: bioavailability (%)
Quick reminder: number only, in %, skip the unit.

Q: Provide one value: measured bioavailability of "Cc1cc(F)cc(C)c1C(=O)c1sc2cc(F)ccc2c1Oc1ccc(/C=C/C(=O)O)cc1"
Result: 62.9

----------
test.summary: AUCt in ICR mouse at 3 mg/kg, iv and measured upto 24 hrs by LC-MS analysis
Type: ADME, organism-based
Design: dose 3 mg/kg, time < 24 hrs, route iv
setup.conditions: in vivo
property.measured: AUC(0-t) at 24 h

Q: Provide one value: measured AUC(0-t) at 24 h of "Cc1cc(F)cc(C)c1C(=O)c1sc2cc(F)ccc2c1Oc1ccc(/C=C/C(=O)O)cc1"
Result: 4610 ng·h/mL

----------
test.summary: MRT(t) in ICR mouse at 3 mg/kg, iv and measured upto 24 hrs by LC-MS analysis
Assay type: ADME, organism-based
setup.conditions: in vivo
property.measured: MRT last at 24 h

Q: Provide one value: measured MRT last at 24 h of "Cc1cc(F)cc(C)c1C(=O)c1sc2cc(F)ccc2c1Oc1ccc(/C=C/C(=O)O)cc1"
Result: 58.7 min

----------
test.summary: Half life in ICR mouse at 3 mg/kg, iv and measured upto 24 hrs by LC-MS analysis
Format: ADME, organism-based
setup.conditions: in vivo
property.measured: half-life (h)
Quick reminder: number only, in h, skip the unit.

Q: Provide one value: measured half-life of "Cc1cc(F)cc(C)c1C(=O)c1sc2cc(F)ccc2c1Oc1ccc(/C=C/C(=O)O)cc1"
Result: 1.23

----------
test.summary: Tmax in ICR mouse at 3 mg/kg, iv and measured upto 24 hrs by LC-MS analysis
Assay type: ADME, organism-based
setup.conditions: in vivo
property.measured: Tmax

Q: Provide one value: measured Tmax of "Cc1cc(F)cc(C)c1C(=O)c1sc2cc(F)ccc2c1Oc1ccc(/C=C/C(=O)O)cc1"
Result: 1.8 min

----------
test.summary: MRT(t) in ICR mouse at 30 mg/kg, po and measured upto 24 hrs by LC-MS analysis
Format: ADME, organism-based
setup.conditions: in vivo
property.measured: MRT last at 24 h
Please make sure the unit comes right after the number.

Q: Provide one value: measured MRT last at 24 h of "Cc1cc(F)cc(C)c1C(=O)c1sc2cc(F)ccc2c1Oc1ccc(/C=C/C(=O)O)cc1"
Result: 4.39 h

----------
test.summary: Apparent volume of distribution in ICR mouse at 3 mg/kg, iv and measured upto 24 hrs by LC-MS analysis
Type: ADME, organism-based
setup.conditions: in vivo, read-out: Vz
property.measured: Vd
Please make sure the unit comes right after the number.

Q: Provide one value: measured Vd of "Cc1cc(F)cc(C)c1C(=O)c1sc2cc(F)ccc2c1Oc1ccc(/C=C/C(=O)O)cc1"
Result: 1.13 L/kg

----------
test.summary: Plasma concentration in ICR mouse at 100 mg/kg, po and measured after 0.5 hrs by LC-MS analysis
Assay type: ADME, organism-based
property.measured: concentration at 0.5 h (ng/mL)
Quick reminder: number only, in ng/mL, skip the unit.

Q: Provide one value: measured concentration at 0.5 h of "Cc1cc(F)cc(C)c1C(=O)c1sc2cc(O)ccc2c1Oc1ccc(/C=C/C(=O)O)cc1"
Result: 4500

Q: Provide one value: measured concentration at 0.5 h of "O=C(O)/C=C/c1ccc(Oc2c(C(=O)c3ccccc3)sc3cc(F)ccc23)cc1"
Result: 16000

----------
test.summary: Clearance in ICR mouse at 3 mg/kg, iv and measured upto 24 hrs by LC-MS analysis
Assay type: ADME, organism-based
setup.conditions: in vivo
property.measured: clearance
Please make sure the unit comes right after the number.

Q: Provide one value: measured clearance of "Cc1cc(F)cc(C)c1C(=O)c1sc2cc(F)ccc2c1Oc1ccc(/C=C/C(=O)O)cc1"
Result: 11 mL/min/kg

----------
test.summary: Cmax in ICR mouse at 3 mg/kg, iv and measured upto 24 hrs by LC-MS analysis
Type: ADME, organism-based
Parameters: dose 3 mg/kg, time < 24 hrs, route iv
setup.conditions: in vivo
property.measured: Cmax
Please make sure the unit comes right after the number.

Q: Provide one value: measured Cmax of "Cc1cc(F)cc(C)c1C(=O)c1sc2cc(F)ccc2c1Oc1ccc(/C=C/C(=O)O)cc1"
Result: 4500 ng/mL

----------
System: MCF7
test.summary: Antiproliferative activity against human MCF7 cells assessed as reduction in cell viability
Format: functional, cell-based
property.measured: IC50 (µM)
Quick reminder: number only, in µM, skip the unit.

Q: Provide one value: measured IC50 of "CCNCCc1ccc(CN(CC)c2cc(OC)ccc2[C@@H]2CCc3cc(O)ccc3C2)cc1"
Result: 4.2

----------
test.summary: Tmax in ICR mouse at 30 mg/kg, po and measured upto 24 hrs by LC-MS analysis
Assay type: ADME, organism-based
setup.conditions: in vivo
property.measured: Tmax (min)
Quick reminder: number only, in min, skip the unit.

Q: Provide one value: measured Tmax of "Cc1cc(F)cc(C)c1C(=O)c1sc2cc(F)ccc2c1Oc1ccc(/C=C/C(=O)O)cc1"
Result: 20

----------
test.summary: MRT (0 to infinity) in ICR mouse at 3 mg/kg, iv and measured upto 24 hrs by LC-MS analysis
Assay type: ADME, organism-based
setup.conditions: in vivo
property.measured: MRT inf (h)
Quick reminder: number only, in h, skip the unit.

Q: Provide one value: measured MRT inf of "Cc1cc(F)cc(C)c1C(=O)c1sc2cc(F)ccc2c1Oc1ccc(/C=C/C(=O)O)cc1"
Result: 1.04

----------
test.summary: Plasma concentration in ICR mouse at 100 mg/kg, po and measured after 1 hrs by LC-MS analysis
Assay type: ADME, organism-based
property.measured: concentration at 1 h
Please make sure the unit comes right after the number.

Q: Provide one value: measured concentration at 1 h of "O=C(O)/C=C/c1ccc(Oc2c(C(=O)c3ccccc3)sc3cc(F)ccc23)cc1"
Result: 15600 ng/mL

----------
test.summary: Plasma concentration in ICR mouse at 100 mg/kg, po and measured after 0.25 hrs by LC-MS analysis
Format: ADME, organism-based
property.measured: concentration at 0.25 h

Q: Provide one value: measured concentration at 0.25 h of "O=C(O)/C=C/c1ccc(Oc2c(C(=O)c3ccccc3)sc3cc(F)ccc23)cc1"
Result: 9860 ng/mL
